Subject Of Test: P. aeruginosa LysRS (Pseudomonas aeruginosa, UniProt Q9HXU0)
Sequence (Q9HXU0 whole entry): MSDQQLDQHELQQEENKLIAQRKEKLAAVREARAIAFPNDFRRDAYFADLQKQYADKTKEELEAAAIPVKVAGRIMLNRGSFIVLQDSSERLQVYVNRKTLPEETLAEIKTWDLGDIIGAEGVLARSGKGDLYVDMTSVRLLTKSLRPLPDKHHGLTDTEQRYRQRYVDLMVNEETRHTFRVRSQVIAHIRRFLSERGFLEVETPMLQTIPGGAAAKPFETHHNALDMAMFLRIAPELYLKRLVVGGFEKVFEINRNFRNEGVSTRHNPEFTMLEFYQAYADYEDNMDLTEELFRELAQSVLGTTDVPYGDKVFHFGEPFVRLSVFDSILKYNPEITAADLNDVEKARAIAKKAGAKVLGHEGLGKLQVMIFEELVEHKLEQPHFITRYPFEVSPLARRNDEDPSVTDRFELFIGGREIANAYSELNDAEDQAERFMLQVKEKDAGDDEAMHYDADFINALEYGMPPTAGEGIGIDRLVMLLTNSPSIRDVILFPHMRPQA
Protocol: Binding mode
Format: biochemical
Endpoint Name: pKi
Entry type: numeric. Quantity: pKi, the -log10 of concentration in molar units.

Value wanted: pKi (P. aeruginosa LysRS (Pseudomonas aeruginosa, UniProt Q9HXU0)) of entry C=CC1=C(C)/C(=C/c2[nH]c(Cc3[nH]c(/C=C4\NC(=O)C(C)=C4C=C)c(C)c3CCC(=O)O)c(CCC(=O)O)c2C)NC1=O
5.46
